Overview of recorded pKd for various binders
Biological target: T1, 10E8-GT10.2 epitope scaffold (designed scaffold 10E8-GT10.2 with …, N-linked glycosylation sites added (positions not given))
T1 chain: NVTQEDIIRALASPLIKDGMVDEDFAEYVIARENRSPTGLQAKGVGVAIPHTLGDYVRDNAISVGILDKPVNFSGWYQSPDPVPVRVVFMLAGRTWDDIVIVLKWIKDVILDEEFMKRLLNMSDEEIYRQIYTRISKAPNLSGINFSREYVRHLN
By convention, pKd is the negative base-10 log of a molar concentration.

binder | pKd
NHP-10E8_MPER-GT10v55_W26-07 (antibody, V domains shown) VH: QVQLQESGPGLVKPSETLSLTCAVSGGSFSSYWWGWIRQTPGKGLEWIGSIYGSSGTTEYNPSHKSRATISRDTSENQFSLKLSSVTAADTAVYYCARSGEWPYNFWGGTHNPPHWYFDLWGPGTPIIISS VL: DVVMTQSPLSLSITPGQPASISCRSSHSLIHSNGNTYLSWYQQKPGQPPRRLIYEVSKQDSGVPERFSGSGAGTDFTLKISRVEAEDVGIYYCGQGTHLPLTFGPGTKLDIK | 7.49
NHP-Comp_MPER-GT10v55_W26-06 (antibody, V domains shown) VH: QVQLVQSGAEVKQPGASVKVSCLASGYTFTSYSIHWLRQAHGQRLEWMGWINTATGNPTYTQGFKERFTFSMDTSITTAYLQISSLKTEDTAVYYCARLYRDFWGGYYASSLDVWGRGVLVTVSS VL: SYDLTQPPSVSVSPGQTARITCGGENIGSEPVHWYQQKPPQAPLQVIYSDSERPSGIPERFSGSKSGNTATLTISGVEAGDEADYYCQVWDISSDHPYIFGAGTRLTV | 9.95
MPER18_d21_45.2_v55_04 (antibody, V domains shown) VH: QVQLQESGPGLVKPSETLSLTCTVSGDSISSYYWNWIRQPPGKGLEWIGYFYYYGSTNYNPSLKSRVTISVDTSKNQFSLNLSSVTAADTAVYYCAREPPYYDFWSGLSMGVDTFDIWGQGTMVTVSS VL: DVVMTQTPLSLPVSLGDQASISCRSSQSLVHSNGNTYLHWYLQKPGQSPKLLIYKVSNRFSGVPDRFSGSGSGTDFTLKISRVEAEDLGVYFCSQSTHVPRTFGGGTKLEIK | 6.25
NHP-10E8_MPER-GT10v55_W21-01 (antibody, V domains shown) VH: EVRLVESGGGLVQPGGSLRLSCAASGFTFSDYYMSWVRQAPGKGPEWVGFIRNKANGGTAEYAASVKGRFTISRDDSKSIASLQMNSLKTEDTAVYYCARAPLHYNFWSGYYTDYGLDSWGQGVVVTVSS VL: DIVMTQSPDSLAVSLGERVTINCKSSQSLLYSSNNKNYLAWYQQKPGQAPKLLIYWASTRESGVPNRFSGSGSGSDFTLTISGLQAEDVAVYYCQQYYSTPHSFGQGTKVEIK | 5.17
NHP-10E8_MPER-GT10v55_W21-03 (antibody, V domains shown) VH: EVHLVESGAGLVQPGGSLRLSCAASGFTFRNSWMSWVRQAPGKGLEWIARIKRKADGETTDYAASVKGRFTLSRDDSKNTVYLQMDSLKTEDTAVYYCTTDQGYYNFWSGNYDYYGLDSWGQGVVVAVSS VL: DIQMTQSPSSLSAFVGDRVTITCRASQGISTHLNWYQQKPGKAPKRLIYTSSNLETGVPSRFSGSGSGTDFTLTISSLQPEDFATYYCLQYNSDPWTFGQGTKVEIK | 5.08
NHP-10E8_MPER-GT10v55_W21-15 (antibody, V domains shown) VH: QLQLQESGPGLVKPSETLSLTCAVSGGSISSSNWWSWIRQPPGKGLEWIGRISGSGGSTSDNPSLKSRVTISKDTSKNQFSLKLSSVTAADTAVYYCASESFYYNFWSGYYQENSLDVWGRGVLVTVSS VL: QPVLTQPTSLSASPGASARLSCTLSSGINVGSYSIFWYQQKPGSPPRYLLYYYSDSSKHQGSGVPSRFSGSKDASANAGLLLISGLQSEDEADYYCAIWHSSAYVLFGGGTRLTV | 5.29
MPER18_d21_45.2_v55_m15_D07 (antibody, V domains shown) VH: QVQLQESGPGLVRPSETLSLTCTVSGGSISSYYWSWIRQPPGKGLEWIGYIYYSGSTNYNPSLKSRVTISVDTSKNQFSLKLNSVTAADTAVYYCTREPPYYDFWSELSLGVGAFDIWGQGTMVTVSS VL: DIVMTQSPLSLPVSLGDQASISCRSSQTIVHSNGYTYLEWYLQKPGQSPKLLIYKVSNRFSGVPDRFSGSGSGTDFTLKISRVEAEDLGVYYCFQGSHVPWTFGGGTKLEIK | 8.55
NHP-10E8_MPER-GT10v55_W21-18 (antibody, V domains shown) VH: QLQLQESGPGLVKPSETLSLTCAVSGGSISSSYWSWIRQAPGKGLEWIGYIYGSGSSTNYNPSLKSRVTLSVDTSKNQLSLKLSSVTAADTAVYYCARDVKDYNFWSGYYEDGYFDYWGQGVLVTVSS VL: DIVMTQTPLSLPVTPGEPASISCRSSQSLLHSNGNTYLHWYLQKPGQSPRLLIYKVTNRESGVPDRFSGSGSGTDFTLKISRVEPEDVGVYYCMQSTKDPYSFGQGTKVEIK | 5.22
MPER18_d21_45.2_v55_m15_E09 (antibody, V domains shown) VH: QVQLQESGPGLVKPSETLSLTCTVSGGSISNYYWSWIRQPPGKGLEWIGYFYYSGTTNYNPSLKSRVTISVDTSKNQFSLKLSSVTAADTAVYYCAREPPYYDFWSGLSMGVGAFDIWGQGTMVTVSS VL: DVLMTQTPLSLPVSLGDQASISCRSSQSIVYSNGYTYLEWYLQKPGQSPKLLIYKVSNRFSGVPDRFSGSGSGTDFTLKISRVEAEDLGVYYCFQGSHVPWTFGGGTKLEIK | 7.83

Lookup result for NHP-10E8_MPER-GT10v55_W26-02 (antibody, V domains shown) VH: EVQLVESGGGLAKPGGSLRLSCAASGFTFSDYYMDWVRQAPGKGLEWVSRISNGGGSTWYADSVKGRFTISRENAKNTLYLQMNSLRAEDTAVYYCASELSYYNFWSGYGASYGLDSWGQGVVVTVSS VL: QPVLTQPTSLSASPGASARLTCTLRSGISVGSYRIFWYQQKPGSPPRYLLNYHTDSDKHQGSGVPSRFSGSKDASANAGILLISGLQSEDEADYYCMIWHNNAYIFGAGTRLTV ; measured pKd: 5.51

// provenance: paper PMC11147780
